Measured values drawn from ChEMBL document CHEMBL1131976 for this set.

Listed here are molecules together with their documented pIC50.
Target protein (sequence): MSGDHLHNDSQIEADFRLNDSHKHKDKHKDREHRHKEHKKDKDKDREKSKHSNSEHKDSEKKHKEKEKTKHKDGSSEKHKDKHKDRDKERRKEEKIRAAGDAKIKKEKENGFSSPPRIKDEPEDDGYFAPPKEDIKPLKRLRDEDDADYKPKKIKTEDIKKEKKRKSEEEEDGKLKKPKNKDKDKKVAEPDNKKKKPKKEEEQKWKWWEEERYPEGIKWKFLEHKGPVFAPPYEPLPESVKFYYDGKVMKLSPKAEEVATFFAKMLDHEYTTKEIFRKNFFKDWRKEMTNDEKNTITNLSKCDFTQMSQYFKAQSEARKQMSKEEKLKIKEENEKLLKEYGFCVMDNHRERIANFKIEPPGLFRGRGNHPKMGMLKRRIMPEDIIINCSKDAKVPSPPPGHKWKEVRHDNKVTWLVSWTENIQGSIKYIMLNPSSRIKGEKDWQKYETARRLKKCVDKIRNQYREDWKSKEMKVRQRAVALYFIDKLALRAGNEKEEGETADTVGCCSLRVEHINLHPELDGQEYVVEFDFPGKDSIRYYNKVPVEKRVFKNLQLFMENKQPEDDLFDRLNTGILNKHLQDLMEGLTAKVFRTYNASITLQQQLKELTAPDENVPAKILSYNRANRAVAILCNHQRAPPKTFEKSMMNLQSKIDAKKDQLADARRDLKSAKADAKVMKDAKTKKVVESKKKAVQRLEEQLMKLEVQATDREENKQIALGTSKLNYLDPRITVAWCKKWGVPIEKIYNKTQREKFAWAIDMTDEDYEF
pIC50: −log10 of the molar value.

- MOLECULE SMILES: "Cc1cc(O)c2c(c1)O[C@@]13C(=O)N(C)[C@@H](CC=C1C2=O)[C@H]3O"
  QUALIFIER: "<"
  pIC50: 3.52
- MOLECULE SMILES: "CNC(=O)[C@]12Oc3cc(C)cc(O)c3C(=O)C1=CC=C[C@H]2O"
  QUALIFIER: "<"
  pIC50: 3.52
- MOLECULE SMILES: "Cc1cc(O)c2c(c1)O[C@@]1(C(=O)NCCO)C(=CC=C[C@H]1O)C2=O"
  QUALIFIER: "="
  pIC50: 3.99
- MOLECULE SMILES: "Cc1cc(O)c2c(c1)O[C@@]1(C(N)=O)C(=CC=C[C@H]1O)C2=O"
  QUALIFIER: "="
  pIC50: 4.20
- MOLECULE SMILES: "COC(=O)[C@]12Oc3cc(C)cc(O)c3C(=O)C1=CC=C[C@H]2O"
  QUALIFIER: "="
  pIC50: 3.76
